Reference source: patent US10899754B2

- Protocol Description: Toxicokinetics in Beagle dogs, 7 day repeat oral administration
- Assay type: in vivo
- Conditions Used: plasma; Beagle dog, 20 mg/kg PO BID, post dose on Days 1 and 7
Measured Attribute: Tmax
Kindly write the number and append the unit.

Form: compound = CC(C)CN(c1ccc([C@H](C)CC(=O)O)cc1Nc1nnc(C2CC2)s1)C1CCOCC1 [Example 23] ; Tmax = 30 min

====

Parameter: IC50. Scope: all listed entries.
- Target Desc: indoleamine 2, 3-dioxygenase (IDO1) (Homo sapiens, UniProt P14902)
- Sequence (P14902 whole entry): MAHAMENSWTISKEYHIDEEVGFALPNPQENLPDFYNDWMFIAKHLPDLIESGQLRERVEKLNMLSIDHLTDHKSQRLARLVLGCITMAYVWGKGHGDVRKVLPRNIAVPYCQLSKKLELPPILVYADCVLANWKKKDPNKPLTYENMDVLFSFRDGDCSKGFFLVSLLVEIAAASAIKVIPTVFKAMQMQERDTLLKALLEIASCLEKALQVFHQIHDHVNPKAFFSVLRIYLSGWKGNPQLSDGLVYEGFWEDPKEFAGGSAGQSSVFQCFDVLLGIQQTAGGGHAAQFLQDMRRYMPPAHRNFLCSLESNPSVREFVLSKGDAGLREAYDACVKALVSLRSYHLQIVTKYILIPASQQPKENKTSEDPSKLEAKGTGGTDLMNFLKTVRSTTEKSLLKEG
- Protocol Description: IDO1 PBMC RapidFire MS assay (kynurenine detection by mass spectrometry)
- Format: cell-based
- Set-up: to induce the expression of indoleamine 2, 3-dioxygenase (IDO1); host or cells: human PBMC stimulated with IFN-gamma and LPS
- Conditions Used: human PBMC stimulated with IFN-γ and LPS, 2 days, pIC50, read-out: PBMC PXC50 (converted)
Lab book: enter the figure in nM, no units written.

Below, each entry is followed by its recorded IC50 result.
CC(C)CN(CC(C)C)c1ccc(-c2ccccc2C(=O)O)cc1Nc1nc(C2CC2)ns1 [example 288]; 100
COCc1ccc(Nc2cc([C@H](C)CC(=O)O)ccc2N(CC(C)C)[C@H]2CC[C@H](OC)CC2)nc1 (racemic) [example 247]; 31.6
CO[C@H]1CC[C@@H](N(CC(C)C)c2ccc([C@H](C)CC(=O)O)cc2Nc2nc(C(F)(F)F)ns2)CC1 [Example 43]; 0.631
COc1ccc2[nH]c(Nc3cc(-c4ccccc4C(=O)O)ccc3N(CC(C)C)C3CCCCC3)nc2c1 [example 287]; 7.94
CC(C)CN(c1ccc([C@H](C)CC(=O)O)cc1Nc1n[nH]c(C#N)n1)[C@H]1CC[C@H](O)CC1 (racemic) [example 224]; 1580

Let's switch to this compound now.
Form: compound = CC[C@H](CC(=O)O)c1ccc(N(CC(C)C)C2CCCCC2)c(Nc2nc(C(F)(F)F)ns2)c1 [Example 38] ; IC50 = 0.794

====

- Target Desc: indoleamine 2, 3-dioxygenase (IDO1) (Homo sapiens, UniProt P14902)
- Protocol Description: IDO1 HeLa RapidFire MS assay (kynurenine detection by mass spectrometry)
- Type: cell-based
- Parameters: to induce the expression of indoleamine 2, 3-dioxygenase (IDO1)
- Conditions Used: HeLa cells, pIC50, read-out: IDO1_HELA_PXC50 (converted)
Under this convention, 1.0 denotes IC50 strictly below 30 nM and 0.0 denotes IC50 at or above 30 nM.

For orientation, consider the following solved cases.
CC(C)CN(c1ccc([C@H](C)CC(=O)O)cc1Nc1ccc(C#N)cn1)C1CCCCC1 [Example 73]; 1.0
CC(C)CN(CC(C)C)c1ccc(C(C)CC(=O)O)cc1Nc1nc(N2CCOCC2)ns1.O=C(O)C(F)(F)F (stereo not shown) [example 117]; 0.0

In plain terms, does CC(C)CN(CC(C)C)c1ccc([C@H](C)CC(=O)NS(C)(=O)=O)cc1Nc1nc(C(F)(F)F)ns1 [Example 109] come in under 30 nM for IC50?
0.0

In plain terms, does CC(C)CN(c1ccc(-c2ccccc2C(=O)O)cc1NCCC#N)C1CCCCC1 [example 277] come in under 30 nM for IC50?
0.0

In plain terms, does CC(C)CN(c1ccc(C(C)(C)CC(=O)O)cc1Nc1ccc(Cl)cn1)C1CCOCC1 [Example 4] come in under 30 nM for IC50?
1.0

In plain terms, does CC(C)CN(c1ccc(-c2cccnc2C(=O)O)cc1Nc1nc2ccccc2[nH]1)C1CCCCC1 [example 278] come in under 30 nM for IC50?
0.0
